biological target: kynureninase (Pseudomonas fluorescens, UniProt P83788); assay: Inhibition / kinetics of tryptophan-induced bacterial kynureninase; settings: bacterial enzyme; unpublished results of the authors
Sequence (P83788 whole entry): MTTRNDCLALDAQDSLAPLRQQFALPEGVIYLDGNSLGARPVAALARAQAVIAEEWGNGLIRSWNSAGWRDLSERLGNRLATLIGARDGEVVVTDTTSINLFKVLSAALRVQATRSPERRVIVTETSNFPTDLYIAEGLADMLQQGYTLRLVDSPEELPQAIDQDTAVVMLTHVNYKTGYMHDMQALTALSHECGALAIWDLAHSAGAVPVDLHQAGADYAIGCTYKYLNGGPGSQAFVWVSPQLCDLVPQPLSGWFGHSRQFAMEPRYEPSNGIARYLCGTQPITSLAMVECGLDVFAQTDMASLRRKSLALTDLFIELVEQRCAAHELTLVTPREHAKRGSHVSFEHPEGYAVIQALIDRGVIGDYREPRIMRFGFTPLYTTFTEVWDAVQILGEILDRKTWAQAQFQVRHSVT
PROPERTY_NAME: Ki (µM)
Please respond with the number in µM and leave the unit unwritten.

Kindly note the recorded Ki for Nc1ccccc1C(=O)CCC(=O)O [desaminokynurenine] , which is 12

Value source: paper PMC223355
